Just for reference, PubChem BioAssay AID1159580 is where these values come from.

As shown below, each of these compounds has a reported normalized growth value.
TEST NAME: chemical genetic growth profiling, strain panel (AID 1159580);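 further: tested at 20 µM; growth read once vehicle control cultures reached saturation at 30 °C; 1 = growth at the plate median or of vehicle wells; lower values mean less growth of the strain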
CONDITION SET: S. cerevisiae deletion strains, growth OD, locus YHR142W, strain chs7, active compounds read low
The whole screen tested about 5,500 compounds, of which about 2,000 (36%) were called active. Another 18% or so got no clear call; they are omitted. The list shows a part of the results.
MEASURED PARAMETER: normalized growth

>>> recorded_value("COc1ccc(C(=O)c2ccccc2O)c(O)c1")
0.722
>>> recorded_value("CCCCCCCCCCCCCCCCOP(=O)([O-])OCC[N+](C)(C)C")
0.0698
>>> recorded_value("O=c1ccc2ccccc2o1")
1.03
>>> recorded_value("NC(N)=NOCC[C@H](N)C(=O)O")
1.03
>>> recorded_value("COC(=O)C1[C@H]2C[C@H]3c4[nH]c5ccccc5c4CCN3C[C@@H]2CC[C@@H]1O (stereo not given in full)")
0.983
>>> recorded_value("NC/C=C/C(=O)O")
0.975
>>> recorded_value("CC(=O)CC(=O)CCC(=O)O")
1.02
>>> recorded_value("Cc1cc(=O)c2c(O)cc(O)c(C)c2o1")
0.869
>>> recorded_value("C=C1CC[C@H](O)C/C1=C/C=C1\\CCC[C@]2(C)C([C@H](C)/C=C/[C@H](C)C(C)C)CC[C@@H]12 (stereo not given in full)")
1
>>> recorded_value("CC(=O)OCC(CCn1cnc2cnc(N)nc21)COC(C)=O")
1
>>> recorded_value("COc1ccc2c(c1)C1(C)CCC(=O)CC1CC2 (stereo not given)")
1.02
>>> recorded_value("COc1cc(O)c2c(=O)cc(C)oc2c1CC=C(C)C")
0.884
>>> recorded_value("COc1cc(O)c(C(=O)c2ccccc2)cc1O")
1.01
>>> recorded_value("COc1ccc2c(c1)[C@@]1(C)CCC(=O)C[C@H]1CC2")
0.954
>>> recorded_value("C[CH2][Hg][S]c1ccccc1C(=O)O")
0.0696
>>> recorded_value("CNc1ccccc1C(=O)N1CCc2c([nH]c3ccccc23)C1=O")
0.975
>>> recorded_value("O=[N+]([O-])O[C@H]1CO[C@H]2[C@@H]1OC[C@H]2O[N+](=O)[O-]")
0.991
>>> recorded_value("NCC1CCCCC1CC(=O)O (stereo not given)")
1.03
>>> recorded_value("COc1c(O)cc2oc3cc(O)c(CC=C(C)C)c(O)c3c(=O)c2c1CC=C(C)C")
0.89
>>> recorded_value("COc1cccc2c1CCC1CC(=O)CCC21C (stereo not given)")
0.981
>>> recorded_value("Cc1ccc2c(c1)CC[C@H]1CC(=O)CC[C@]21C")
0.985
>>> recorded_value("O=C(O)c1ccccc1OP(=O)(O)O")
0.958
>>> recorded_value("C[N+](C)(C)CCOP(=O)([O-])OP(=O)(O)OC[C@H]1OC(n2ccc(N)nc2=O)[C@H](O)[C@@H]1O (stereo not given in full)")
0.98
>>> recorded_value("CC(C)(N=NC(C)(C)C(=N)N)C(=N)N")
0.965
>>> recorded_value("Cc1cc(=O)c2c(O)c(C)c(O)cc2o1")
1.04

###

TEST NAME: chemical genetic growth profiling, strain panel (AID 1159580);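 further: tested at 20 µM; growth read once vehicle control cultures reached saturation at 30 °C; 1 = growth at the plate median or of vehicle wells; lower values mean less growth of the strain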
CONDITION SET: S. cerevisiae deletion strains, growth OD, locus YER002W, strain NOP16, active compounds read low
Out of some 5,500 compounds screened, about 2,000 (36%) were called active. Not shown: some 18% with an inconclusive outcome. The list shows a part of the results.
List of normalized growth values.
MEASURED PARAMETER: normalized growth

>>> recorded_value("CNC1(C)C2CCC(C2)C1(C)C (centres undefined)")
1
>>> recorded_value("NC/C=C/C(=O)O")
0.975
>>> recorded_value("CCCCCCCCCCCCCCCCCCOC[C@H](COP(=O)([O-])OCC[N+](C)(C)C)OC")
1.04
>>> recorded_value("OC[C@H]1NC[C@@H](O)[C@@H]1O")
0.998
>>> recorded_value("CC1CCN=C(N)S1 (centres undefined)")
1
>>> recorded_value("O=C(OCCN1CCCCC1)c1c[nH]c2ccccc12")
1.02
>>> recorded_value("C[N+](C)(C)CC(=O)O")
1
>>> recorded_value("OCCN(CCO)c1nc(N2CCCCC2)c2nc(N(CCO)CCO)nc(N3CCCCC3)c2n1")
1
>>> recorded_value("CC(=O)OC1C(=O)C2(C)C(O)CC3OCC3(OC(C)=O)C2C(OC(=O)c2ccccc2)C2(O)CC(OC(=O)C(O)C(NC(=O)c3ccccc3)c3ccccc3)C(C)=C1C2(C)C (centres undefined)")
1
>>> recorded_value("O[Si](CCCN1CCCCC1)(c1ccc(F)cc1)C1CCCCC1 (centres undefined)")
1.04
>>> recorded_value("N[C@@H](CS(=O)O)C(=O)O")
0.98
>>> recorded_value("O=c1[nH]c2ccccc2c2ccccc12")
0.987
>>> recorded_value("CN=C(NC#N)NCCSCc1nc[nH]c1C")
1.02
>>> recorded_value("Oc1ccc(Cn2cc[nH]c2=S)cc1")
1.03
